Study Target: Ubiquitin-activating enzyme e1, putative (Leishmania donovani (strain BPK282A1)) (UniProt E9BSI1)
Sequence (E9BSI1 as listed by the source): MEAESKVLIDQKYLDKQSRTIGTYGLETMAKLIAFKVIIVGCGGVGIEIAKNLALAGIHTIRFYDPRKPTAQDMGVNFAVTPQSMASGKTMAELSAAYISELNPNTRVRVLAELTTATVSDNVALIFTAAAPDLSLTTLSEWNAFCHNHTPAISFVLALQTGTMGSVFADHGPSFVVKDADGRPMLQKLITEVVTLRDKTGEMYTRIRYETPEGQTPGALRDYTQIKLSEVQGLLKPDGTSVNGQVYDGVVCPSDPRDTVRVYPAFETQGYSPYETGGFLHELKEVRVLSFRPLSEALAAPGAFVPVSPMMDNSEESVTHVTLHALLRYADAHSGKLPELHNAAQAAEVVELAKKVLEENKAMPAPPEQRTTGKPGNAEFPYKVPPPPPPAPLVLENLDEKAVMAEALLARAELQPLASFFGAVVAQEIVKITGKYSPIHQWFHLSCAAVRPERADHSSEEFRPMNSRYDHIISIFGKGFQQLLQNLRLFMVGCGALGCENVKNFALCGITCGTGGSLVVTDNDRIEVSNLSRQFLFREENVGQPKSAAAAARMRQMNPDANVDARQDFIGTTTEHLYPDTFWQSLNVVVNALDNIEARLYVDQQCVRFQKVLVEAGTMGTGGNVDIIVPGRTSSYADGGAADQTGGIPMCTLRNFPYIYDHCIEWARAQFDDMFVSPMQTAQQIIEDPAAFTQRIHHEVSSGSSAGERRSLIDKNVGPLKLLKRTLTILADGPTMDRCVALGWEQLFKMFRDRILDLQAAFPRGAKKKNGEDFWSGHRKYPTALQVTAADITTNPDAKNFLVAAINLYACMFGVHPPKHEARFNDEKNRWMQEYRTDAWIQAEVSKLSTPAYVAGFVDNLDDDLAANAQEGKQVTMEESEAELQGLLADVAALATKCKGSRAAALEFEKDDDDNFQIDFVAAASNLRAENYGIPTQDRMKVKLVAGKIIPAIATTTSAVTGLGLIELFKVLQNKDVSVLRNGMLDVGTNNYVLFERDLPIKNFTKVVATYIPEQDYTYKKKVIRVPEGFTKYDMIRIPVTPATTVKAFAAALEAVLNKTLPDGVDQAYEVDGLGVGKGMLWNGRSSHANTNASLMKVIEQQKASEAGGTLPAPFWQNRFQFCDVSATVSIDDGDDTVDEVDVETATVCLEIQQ
Assay Protocol: Leishmania donovani Ubiquitin Activating Enzyme (LdE1)
Format: functional
Parameters: scale not given: direction of the effect not stated beside the values
Recorded Conditions: 30 µM
Results with a measured potency or affinity are listed apart.
Quantity Name: Percent Effect (%)

compound="CCc1noc(C(C)N2CCOCC2)n1 (configuration not stated)" quantity_name="Percent Effect" value=10.7
compound=CCCN(CC)C(=O)c1cc2c(c3ccccc3n2C)n1C(=O)N(C)C quantity_name="Percent Effect" value=11.7
compound=CCO[C@@H]1CO[C@@]2(CCCN(S(=O)(=O)c3cccnc3)C2)C1 quantity_name="Percent Effect" value=11.7
compound=Nc1nccc(N2CCC(Cc3ccccc3Cl)(C(=O)O)CC2)n1 quantity_name="Percent Effect" value=16.2
compound=COc1ccc(C2=CCN(C(=O)CN(C)Cc3ccoc3)CC2)cc1 quantity_name="Percent Effect" value=7.59
compound="COc1ccccc1CC(=O)NCCCN1CCCC1C(=O)N(C)C (configuration not stated)" quantity_name="Percent Effect" value=8.22
compound=Cc1ccc(OC2(C(=O)O)CCN(C(=O)c3ccc(F)cc3)CC2)cn1 quantity_name="Percent Effect" value=-2.7
compound="CC(C)Oc1cccc(C(=O)C2CCCN(C(=O)c3ncn[nH]3)C2)c1 (configuration not stated)" quantity_name="Percent Effect" value=-2.7
compound="Cc1cnn(CC2CCCN2CC(=O)N(C)CCC#N)c1 (configuration not stated)" quantity_name="Percent Effect" value=-5.41
compound=O=C(NCCn1ccc(-c2ccccn2)n1)c1ccncc1 quantity_name="Percent Effect" value=8.22
compound="Cc1csc(C2CCCN(C(=O)c3cnc4n[nH]c(C)c4c3)C2)n1 (configuration not stated)" quantity_name="Percent Effect" value=10.8
compound=Cc1ccc(-c2nnc(SCC(=O)O)n2-c2ccc(C)cc2)cc1 quantity_name="Percent Effect" value=13.3
compound="CCc1n[nH]c(C2CN(C(=O)c3nc(C)ncc3Cl)CCO2)n1 (configuration not stated)" quantity_name="Percent Effect" value=7.79
compound="CCc1c(C(=O)NCC2CCS(=O)(=O)C2)cnn1-c1ccc(C)cc1 (configuration not stated)" quantity_name="Percent Effect" value=17.7
compound=COCc1nc2cc(NCc3ccncc3)ccc2o1 quantity_name="Percent Effect" value=54
compound="CCC(C)NC(=O)N1CCCn2cnc(CO)c2C1 (configuration not stated)" quantity_name="Percent Effect" value=2.74
compound=CN(C)[C@@H]1CCN(C(=O)NC2CCCC2)[C@H]1Cc1cnn(C)c1 quantity_name="Percent Effect" value=2.67
compound="Cc1cnn(C(C)C2CC2)c1NC(=O)c1ccncc1 (configuration not stated)" quantity_name="Percent Effect" value=-5.41
compound=C[C@H]1C[C@@H]2CCN(C(=O)c3ccncn3)C[C@H]2O1 quantity_name="Percent Effect" value=0
compound="COC(=O)CC(c1ccc(OC)c(OC)c1)c1oc(C)cc(=O)c1O (configuration not stated)" quantity_name="Percent Effect" value=2.7
compound=CCOC(=O)N1CCN(C(=O)c2ccc3ccn(C)c3c2)CC1 quantity_name="Percent Effect" value=0
compound="COc1c(CNC2CCc3cc(F)ccc32)c(C)nn1C (configuration not stated)" quantity_name="Percent Effect" value=7.79
compound=CCOC(=O)N1CCN(c2nc(NCCCO)c3ccccc3n2)CC1 quantity_name="Percent Effect" value=-1.33
compound="CCc1noc(C(C)N(C)CC(=O)Nc2c(C)cccc2C)n1 (configuration not stated)" quantity_name="Percent Effect" value=11
compound="CC(=O)c1cccc(NC(=O)CN2CCCCC2C2OCCO2)c1 (configuration not stated)" quantity_name="Percent Effect" value=5.41
compound="CC(=O)N1N=C(c2ccccc2)OC1C(=O)NCCC1=CCCCC1 (configuration not stated)" quantity_name="Percent Effect" value=12
compound=O=C1CO[C@@H]2CN(CC3CCOCC3)C[C@H]2N1CC1CC1 quantity_name="Percent Effect" value=10.8
compound=Cc1[nH]ccc1C(=O)N1CCC(c2nnc(Cn3cccn3)n2C)CC1 quantity_name="Percent Effect" value=2.74
compound=Cc1nnc2n1CCN(CCOc1ccccc1)C2 quantity_name="Percent Effect" value=-1.27
compound=CS(=O)(=O)N1CCc2nc(NC(=O)Nc3c(F)cccc3F)sc2C1 quantity_name="Percent Effect" value=-11
compound="Cc1ccc(CN(C)CC(=O)NC2(C)CCS(=O)(=O)C2)cc1 (configuration not stated)" quantity_name="Percent Effect" value=8
compound=Cc1ccc([C@@H]2CN(C(=O)c3ccc[nH]3)C[C@H]2NC(=O)C2CC2)cc1 quantity_name="Percent Effect" value=5.41
compound=O=C(COc1coc(CN2CCCCC2)cc1=O)Nc1ccc(Cl)cc1 quantity_name="Percent Effect" value=1.33
compound="CC(O)CN1CCN(C(=O)c2ccc(N(C)C)nn2)CC1 (configuration not stated)" quantity_name="Percent Effect" value=10.4
compound=COc1cccc(-c2nccnc2C2CCN(C(C)=O)CC2)c1 quantity_name="Percent Effect" value=9.46
compound="CCc1nc(C2CCCN2CCCS(=O)(=O)c2ccccc2)no1 (configuration not stated)" quantity_name="Percent Effect" value=15.4
compound=Cc1nc(O)c2nnn(C[C@H]3CCCN3C(=O)c3cccc(F)c3)c2n1 quantity_name="Percent Effect" value=-1.35
compound="Cc1oc(-c2ccco2)nc1CC(=O)N1CCC(C(O)C(F)(F)F)CC1 (configuration not stated)" quantity_name="Percent Effect" value=0
compound="COCCC(=O)N1CCn2c(COCC3CC3)cnc2C1C (configuration not stated)" quantity_name="Percent Effect" value=1.3
compound=Cc1nc(C)c(C(=O)NCCNC(=O)c2ccc(F)cc2F)s1 quantity_name="Percent Effect" value=10.8
compound=CC(C)c1nn(C)c(N2CCOCC2)c1CNCCS(C)(=O)=O quantity_name="Percent Effect" value=0
compound=Cc1cccc(-c2ccc3nc(C4CCN(CC5CC5)CC4)nn3c2)c1 quantity_name="Percent Effect" value=5.48
compound="CCCc1cc(C(=O)N2CCOC(c3nc(-c4cccs4)no3)C2)no1 (configuration not stated)" quantity_name="Percent Effect" value=9.33
compound=CN(Cc1ccsc1)C(=O)c1cccc(NS(C)(=O)=O)c1 quantity_name="Percent Effect" value=20.8
compound=O=C(COc1ccc2c(c1)CCC2)NS(=O)(=O)c1cncc(Br)c1 quantity_name="Percent Effect" value=2.56
compound="CCc1nc(C2CCCN2C(=O)CCn2cncn2)no1 (configuration not stated)" quantity_name="Percent Effect" value=0
compound=Cc1sc(NC(=O)CN(C)S(C)(=O)=O)c(C#N)c1C quantity_name="Percent Effect" value=7.79
